Biological target: SIRT2 (Homo sapiens, UniProt Q8IXJ6)
Sequence (Q8IXJ6 38-356): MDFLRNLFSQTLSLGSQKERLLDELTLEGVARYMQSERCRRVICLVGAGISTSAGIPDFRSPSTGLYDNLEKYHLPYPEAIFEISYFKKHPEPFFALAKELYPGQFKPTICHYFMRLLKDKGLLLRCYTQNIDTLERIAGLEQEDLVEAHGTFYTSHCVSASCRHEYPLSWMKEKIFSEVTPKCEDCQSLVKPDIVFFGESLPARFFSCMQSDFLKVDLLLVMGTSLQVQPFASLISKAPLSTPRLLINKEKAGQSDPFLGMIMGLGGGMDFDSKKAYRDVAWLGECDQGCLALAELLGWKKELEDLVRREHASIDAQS
Measured property: IC50

input: Please tell me: IC50 of CC(/C=C/C(=O)NO)=C\[C@@H](C)C(=O)c1ccc(N(C)C)cc1 [Compound 1, trichostatin A] , system SIRT2 (Homo sapiens, UniProt Q8IXJ6)?
output: > 50 µM

====

Target protein (sequence): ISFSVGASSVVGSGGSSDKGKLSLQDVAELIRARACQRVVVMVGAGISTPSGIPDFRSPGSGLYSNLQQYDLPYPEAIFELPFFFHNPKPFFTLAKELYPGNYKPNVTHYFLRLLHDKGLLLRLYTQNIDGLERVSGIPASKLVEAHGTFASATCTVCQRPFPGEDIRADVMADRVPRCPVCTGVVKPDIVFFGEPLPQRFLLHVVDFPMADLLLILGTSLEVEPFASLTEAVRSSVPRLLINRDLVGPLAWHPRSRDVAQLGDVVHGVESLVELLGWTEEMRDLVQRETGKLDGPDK
Measured property: IC50

input: Which IC50 is reported for this compound? CC(/C=C/C(=O)NO)=C\[C@@H](C)C(=O)c1ccc(N(C)C)cc1 [Compound 1, trichostatin A]
output: > 50 µM
